The measured values listed here are drawn from the supplement of paper PMC9170038.

Task for the reader: assign each of the following sequences its reported apparent KD of K4 kissing-loop reporter.
Tested on: K4 kissing-loop RNA reporter;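 further: bound reporter read as fluorescence of individual clusters on recovered sequencing chips by microscopy, with normalized cluster intensities fitted with a binding model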
Test: apparent KD of K4 kissing-loop reporter; higher = weaker reporter binding
Conditions: Eterna round: R107; input ligand: tryptophan 2.4 mM
Give bare numbers, in µM.

sequence entry	experimental system	apparent KD of K4 kissing-loop reporter, µM
AGUGCACUGUCAGGAUAUAUACAGUGAUGUUGUGUAUGUCAGCAAGUCAAAGACUUGCUUUUCUGUGUAGAAGGGACUGUGUACA [Omei KL FMN B Exc A v2]	K4 kissing-loop RNA reporter	0.148
GCAUCCAUGGCAGGAUAUAGGUUCGUGGAGUGAUGUUCCAUAGCCCGAGUGAUGUUCGUUAUCCGCCUAGAAGGGCCGUGGAUGC [whbob_Ex_FMNB__2th214]	K4 kissing-loop RNA reporter	0.212

Lab note: each sequence below needs its apparent KD of K4 kissing-loop reporter filled in.
1. UAACGGCAACAAGGAUAUCCCAGUGAUGUUGGGAGAUAUUGACUAAGGAGACAUGAUAGGCAUAAUGGAGAAGGUGUGUUGGGAG [theeternabot_exclusion_KL_FMN_B_19]
2. AGAGUUAUGAGAGGAUAUGCGGCUAGUACUCAAAGAGUACUAGCAGCGGAGUGAUGUUCUGCGAAAGCAGAAGGUUCAUAACUCA [#08 K4 FMN B Same State]
3. UGAUAGGACAGAAGGAGCGGUAGUGAUGUUACCAAAAGGGUAAGGUGUCAAAAGACACCCUACCAGGUAGGUCGCUGUCCUAUCU
4. CGCGCGGGUUGAGAGGUUCGCGCGAAUGAUACCAGUAUAUAAGAAUACCCUUGGCAGCAUAAGAAAGAUAUAGUGAUGUUGUAUA [SSTheophA.G]
5. AAGCAGUCUCUCGAAGCCAUCGAAGAUGGGCGAGGACCGGUACGGCCGCCACUCGGAGUGAUGUUCCGAAGACUGCAAAAUAAAA [MatMod 10 - Jieux - Exclusion - Tryptophan A]
6. UAUUGAUUGUCAGGAUAUCGUAAACGAGUGAUGUUCGUAAAUCGACGAUAGUCGAUAUGAUCUGAACGAGAAGGGACAUUAUUUA [JR_SSFMNB_Sub010]
7. UAACAGUCUACGGCCGCCACUGACAAUCGGCAAGCAACAUGUGGGUGCGUAGUGAUGUUACAUAUCAGGACCGGGUAAGACAAAU [theeternabot_sameState_KL_Trp_B_32]

Found:
0.138
1.05
0.0828
0.262
0.308
0.305
0.438

====

Test system: MS2 coat protein
Experiment: apparent KD of MS2 coat protein; higher = weaker reporter binding
Details: Eterna round: R107; input ligand: tryptophan 2.4 mM
reported metric: apparent KD of MS2 coat protein (nM)
Answers are plain numbers, in nM.

Reference set, count: 10
sequence entry	numeric readout
CUGCCAUGCAGAGAUACCAGUGAGCUCAGAACAUGAGGAUCACCCAUGUACGCCGCCGAUCACCCUUGGCAGCUCUGCAUGGCAG [%*#)(]	11.6
UUUAAGAACCGAAGGAGCGCCAGAAAUAAGAACGCUACAUGAGGAUCACCCAUGUAAUAAGGGCAGGUAGGUCGCGGAAUUUAAA [last]	21.4
ACAUGAGGACCGGAUACCAGCCACACAACAUGAGGAUCACCCAUGUCCCAUGUAUGAGGAGGCCCUUGGCAGCCGACAUACAUGA [Exclusion - Theophylline B #1]	78.1
CGCACAUGAGGAUCACCCAUGUGAGGGCGGCGAGGACCGGUACGGCCGCCACUCGCAAAACAUGAGGAUCACCCAUGUGCCGCCG [SSTA DOUBLE!!! :-D #2]	29.2
GCGAUGGAGCGAAGGAGCGGCUGUGACUACAUGAGGAUCACCCAUGUACGAUUGUAAGGUAGCCAGGUAGGUCGCGCUCCAUCGC [SSAB NP+V+V2 #18]	15.8
GAGUCCACGGCGGCCGCCACUCGCGGCGCCACAUGGCGCCGGGACAUGAGGAUCACCCAUGUCCCGAGGACCGGGCCGAUCCUUA [Same State Typrtophan B GF3]	12.9
AAAACAAUCUGAAGGAGCGUCACAUGAGGAUCACCCAUGUACAUGAGGAUCACCCAUGUGUGACAGGUAGGUCGCAGAAAAUACC [Exclusion Arginine B GF 3]	200
UACAUGAGGAUCACCCAUGUAUGAAUAGAUACCAGAUAAAAUAAGGUCCCUUGGCAGCUAGUGAAUAAAGGGUGGGUAAAAUAAU [Exclusion Theophyline A GF 1]	9.24
UUACAUGAGGAUCACCCAUGUCAUACAGAAGGAGCGUCACAUAAGACAGGUAGGUCGCUGUUAUUUCAUACUGUUAUAUCCUCUA [JR_Nu_ExcArginiA_Sub029]	40
ACGACAUGAGGAUCACCCAUGUAAGGUGAUACCAGACGAAGUAAUGUCCCUUGGCAGCACAAGCAUAGUUGCGAUUAUUGUACGA [JR_SSTheophyA_Sub006]	442

Lab note: each sequence below needs its apparent KD of MS2 coat protein filled in.
1. AGCGCUGUGCAUGAUACCAGCUACAUGAGGAUCACCCAUGUGCGUCAGAAAUGACUGUGUAGCCCUUGGCAGCAUAAAGCAUGUA [Exclusion - Theophylline B (Freestyle 8)]
2. UCGGGAACAUGAGGAUCACCCAUGUCAGAAGGAGCGCUGAGAGAAGCAGGUAGGUCGCUGACGUAGGAGCUCUCUUCCUAUACGC [Exclusion - Arginine A]

Found:
19.6
25.4
